- Measurement description: qHTS Assay for Enhancers of SMN2 Splice Variant Expression; note: nearly all actives have a fitted effect of over 55% in size
- Test context: HEK293 SMN2-luciferase splicing reporter, luminescence, 30-36 h; series mostly up to 46.1 µM
The campaign covered roughly 210,000 compounds. About 5,900 (2.8%) were called active. Not shown: some 5% with an inconclusive outcome. Calls come from the whole dose curve; as a rule, active = well fitted activation curve with a large enough effect; inconclusive = small, poorly fitted or top-dose-only effect; inactive = no such curve, though single readings can be large or run the other way. The list comes from a sample in which actives are over-represented; it also holds close analogues and randomly drawn compounds.
Outcome codes: True = active, False = inactive

{"columns": ["Compound", "Classification"],
 "data": [
  ["CCOC(=O)c1ccc(-c2ccc(C(=O)Nc3cccnc3)o2)cc1", "True"],
  ["CCOC(=O)c1ccc(NC(=O)CCn2c(=O)oc3ccccc32)cc1", "False"],
  ["Cc1nn(-c2ccc([N+](=O)[O-])cc2)c(N)c1-c1ccccc1", "True"],
  ["CCOc1ccccc1NC(=O)CCS(=O)(=O)c1cccc2nsnc12", "False"],
  ["CC(=C/c1ccccc1)/C=N/NC(=O)c1cc(C)oc1C", "True"],
  ["CC(C)(C)c1cnnn1-c1ccc([N+](=O)[O-])cc1", "False"],
  ["Cc1cc(C)c2oc(C(=O)Nc3ccc(S(=O)(=O)N(C)c4ccccc4)cc3)cc(=O)c2c1", "False"],
  ["COc1ccccc1NC(=O)c1sc2nc(C)c(C(=O)Nc3ccc(Cl)cc3)c(-c3ccc(Br)cc3)c2c1N", "False"],
  ["COC(=O)CSc1nc(C)c2ccc(OC)cc2n1", "False"],
  ["COc1ccc2nc(SCc3ccccc3)nc(C)c2c1", "True"],
  ["COC(=O)C1=C(c2ccccc2)c2ccccc2S(=O)(=O)N1CC(=O)Nc1ccccc1C(F)(F)F", "False"],
  ["N=c1oc2ccccc2cc1C(=O)N/N=C/c1ccccc1", "False"],
  ["O=C(C1CCCN(S(=O)(=O)c2cccc3nonc23)C1)N1CCN(c2ccccc2F)CC1 (configuration not stated)", "False"],
  ["Cc1ccc(CCNC(=O)c2ccc3c(c2)N(Cc2cc(C)ccc2C)C(=O)c2ccccc2S3=O)cc1 (configuration not stated)", "False"],
  ["COc1ccc(NC(=O)NC(C)c2c(-n3cccc3)sc(C)c2C)cc1OC (configuration not stated)", "False"],
  ["Cc1cc(N/C=C\\C(=O)c2ccc(Cl)c(Cl)c2)no1", "False"],
  ["CCOC(=O)c1cc(NC(=O)c2cccnc2)cc(C(=O)OCC)c1", "False"],
  ["CCOC(=O)c1cc2c(=O)n3ccccc3nc2n(CC2CCCO2)c1=NC(=O)c1ccccc1F (configuration not stated)", "False"],
  ["COc1ccc2nc(/N=C(\\N)NC(=O)Nc3ccccc3)nc(C)c2c1", "False"],
  ["Cn1c(=O)cc(OCC(=O)N2CCN(c3ccccc3)CC2)c2ccccc21", "False"],
  ["CCOc1ccc(NC(=O)CSc2c3c(nc4ccccc24)CCCC3)cc1", "False"],
  ["CCOc1ccc(CCNC(=O)c2csc3c2CCCCC3)cc1", "False"]
]}

---

- Measurement description: qHTS Assay for Enhancers of SMN2 Splice Variant Expression; note: nearly all actives have a fitted effect of over 55% in size
- Test context: HEK293 SMN2-luciferase splicing reporter, luminescence, 30-36 h; series mostly up to 46.1 µM
Hit rate of the full screen: of about 210,000 compounds, about 5,900 (2.8%) were called active. Another 5% or so got no clear call; they are omitted. The call rests on the fitted dose curve; in most records, active means well fitted activation curve with a large enough effect; inconclusive means small, poorly fitted or top-dose-only effect; inactive means no such curve, though single readings can be large or run the other way. The sample as a whole holds a higher share of actives than the screen did.
Outcome codes: class 1 (active), class 0 (inactive)

{"columns": ["Smiles data", "Classification"],
 "data": [
  ["COc1cc(OC)cc(-c2nc(=S)n3ccsc3n2)c1", "class 0"],
  ["COc1ccccc1C(=O)NCCn1cc(SCc2ccccc2Cl)c2ccccc21", "class 0"],
  ["CCCCCn1c(=O)[nH]c2cc(C(=O)NCCN(C)CCCC)ccc2c1=O", "class 0"],
  ["COc1ccc(-c2cn3ccsc3n2)cc1", "class 1"],
  ["Cc1cc(-n2nc(C)cc2C)n2nc(C)c(-c3ccccc3)c2n1", "class 0"],
  ["Cc1cc(N2CCCC2)n2nc(C)c(-c3ccccc3)c2n1", "class 1"]
]}

---

- Measurement description: qHTS Assay for Enhancers of SMN2 Splice Variant Expression; note: nearly all actives have a fitted effect of over 55% in size; note: potency is the fitted concentration of half-maximal effect
- Test context: HEK293 SMN2-luciferase splicing reporter, luminescence, 30-36 h; series mostly up to 46.1 µM
The whole screen tested about 210,000 compounds, of which about 5,900 (2.8%) were called active. About 5% were inconclusive and are not listed. The list comes from a sample in which actives are over-represented; it also holds close analogues and randomly drawn compounds.

{"columns": ["Molecule", "Potency"],
 "data": [
  ["O=C(CSCc1ccccc1)N1CCc2ccccc21", "12.6 µM (active)"],
  ["O=C(Nc1ccc(Br)cc1)c1cc2nc(-c3ccccc3)cc(-c3ccccc3)n2n1", "inactive"],
  ["CCOc1ccc(C2C(C(=O)Nc3ccc(Cl)cc3)=C(C)Nc3nc(C(F)(F)F)nn32)cc1 (stereo not given)", "inactive"],
  ["O=C(Nc1nc(-c2ccncc2)cs1)C1COc2ccccc2O1 (stereo not given)", "inactive"],
  ["CS(=O)(=O)N(C(=O)NC(=O)NC1CCS(=O)(=O)C1)C1CCCCC1 (stereo not given)", "inactive"],
  ["CC(C)C12CN3CC(C(C)C)(CN(C1)C3c1ccc(OCc3ccccc3)cc1)C2=O (stereo not given)", "inactive"],
  ["CC(c1ccco1)N(C(=O)Nc1ccccc1)C1CCCCC1 (stereo not given)", "inactive"],
  ["Cc1ccc(CNC(=O)C2CCN(S(=O)(=O)c3ccc4nc5c(c(C(=O)O)c4c3)CC(C)CC5)CC2)cc1 (stereo not given)", "inactive"],
  ["Cc1cc(-c2csc(N)n2)c(C)n1-c1ccccc1", "12.6 µM (active)"],
  ["c1ccc(Nc2nc(-c3ccncc3)cs2)nc1", "12.6 µM (active)"]
]}

---

- Measurement description: qHTS Assay for Enhancers of SMN2 Splice Variant Expression; note: nearly all actives have a fitted effect of over 55% in size
- Test context: HEK293 SMN2-luciferase splicing reporter, luminescence, 30-36 h; series mostly up to 46.1 µM
The campaign covered roughly 210,000 compounds. About 5,900 (2.8%) were called active. Roughly 5% stayed inconclusive and do not appear here. Calls follow the shape of the dose curve; as a rule, active = well fitted activation curve with a large enough effect; inconclusive = small, poorly fitted or top-dose-only effect; inactive = no such curve, though single readings can be large or run the other way. For the sample, actives were picked, then their nearest neighbours and some compounds at random.
Outcome codes: active, inactive

{"columns": ["Compound", "Classification"],
 "data": [
  ["COc1ccc(C(=O)Nc2sc(C)c(C)c2CN2CCOCC2)cc1", "active"],
  ["COC(=O)c1ccc(CSc2ccc3nnc(-c4ccccc4)n3n2)o1", "inactive"],
  ["COc1ccccc1CNC(=O)CCCn1c(=O)c2ccccc2n(CC(=O)Nc2ccc(C)cc2Cl)c1=O", "inactive"],
  ["COc1ccc(-c2cc(-c3ccccc3)nc3c2COc2ccc(Cl)cc2-3)cc1", "inactive"],
  ["O=c1[nH]c(CCl)nc2cc(-c3ccc(Cl)cc3)sc12", "active"],
  ["O=C(C1CC1)N1CCc2cc(Br)cc(S(=O)(=O)N3CCN(c4ccccc4F)CC3)c21", "inactive"],
  ["COc1ccccc1CNC(=O)CCCCn1c(=O)c2ccccc2n(CC(=O)Nc2cc(Cl)ccc2C)c1=O", "inactive"],
  ["O=c1[nH]c(CN2CCOCC2)nc2cc(Cl)ccc12", "inactive"],
  ["CC1CCN(c2nc3ccc(C(=O)N4CCN(c5ccccc5)CC4)cc3s2)CC1", "inactive"],
  ["C#CC(C)(CC)NC(=O)Cn1nnc(-c2ccc(OCc3c(F)cccc3Cl)cc2)n1 (stereo not drawn)", "inactive"],
  ["O=C(CCn1c(SCC(=O)c2ccccc2)nc2ccccc2c1=O)NCc1ccc(F)cc1", "inactive"],
  ["CCOc1ccc(S(=O)(=O)Nc2ccc3oc4c(c3c2)CC(C)CC4)cc1 (stereo not drawn)", "inactive"],
  ["NC1=NC(c2cc(F)cc(F)c2)n2c(nc3ccccc32)N1 (stereo not drawn)", "inactive"],
  ["COc1ccc2[nH]cc(CCNc3ncnc4ccc(-c5ccccc5CN(C)C)cc34)c2c1", "inactive"],
  ["O=C(CCCn1c(SCC(=O)c2ccc(F)cc2)nc2ccccc2c1=O)NCc1ccco1", "inactive"],
  ["O=C(CN1C(=O)COc2ccc(S(=O)(=O)N3CCCCCC3)cc21)N1CCN(c2cccc(C(F)(F)F)c2)CC1", "inactive"],
  ["CCOC(=O)c1oc2ccc(S(=O)(=O)n3nc(-c4ccccc4OC)cc3N)cc2c1C", "inactive"],
  ["NC(=O)c1sc(-c2ccsc2)cc1N", "inactive"],
  ["COc1ccc(Cl)cc1-n1c(CCC(=O)O)ccc1-c1ccc(C)cc1", "inactive"],
  ["CCOC(=O)c1ccc(N2C(=O)c3n[nH]c(-c4ccco4)c3C2c2ccc(O)cc2)cc1 (stereo not drawn)", "inactive"],
  ["COc1ccc(OC)c(NC(=O)/C=C/c2ccc(C)o2)c1", "inactive"],
  ["CC(CCCc1ccccc1)NC(=O)c1nn(-c2ccc(Cl)cc2)nc1CO (stereo not drawn)", "inactive"],
  ["COc1ccc(C2=NOC3(CC(=O)N(c4ccc(C)cc4)C3=O)C2)cc1 (stereo not drawn)", "inactive"],
  ["COc1ccc(-c2csc(NC(=O)COC(=O)Cc3ccc(Cl)cc3Cl)n2)cc1", "active"],
  ["CCN1CCc2nc3sc(C(=O)Nc4ccccc4OC(F)(F)F)c(N)c3cc2C1", "inactive"],
  ["Cc1ccc(-n2nc(C)c(C(=O)O)c2-n2cccc2)cc1", "inactive"],
  ["Cc1ccc(NC(=O)CN2C(=O)CC(C)Sc3ccccc32)c(C)c1 (stereo not drawn)", "inactive"],
  ["CN(c1nc2ccccc2n2c(-c3ccco3)nnc12)S(=O)(=O)c1ccccc1", "inactive"],
  ["Cc1cccc(N2CCN(c3c(CN4CCCC4)c(=O)oc4ccccc34)CC2)c1C", "inactive"],
  ["COc1ccc(NC(=O)c2ccco2)cc1NC(=O)c1ccc(C#N)cc1F", "inactive"],
  ["Cc1nc2nc(NCc3cccc(Br)c3)[nH]n2c(=O)c1Cc1ccccc1", "inactive"],
  ["COCCNc1ncnc2ccc(-c3ccccc3CN(C)C)cc12", "inactive"],
  ["COC(=O)c1ccccc1NC(=O)Cn1c(=O)n(-c2cccc(C(F)(F)F)c2)c(=O)c2c(C)c(C)sc21", "inactive"],
  ["COc1cccc(OCC(=O)Nc2ccccc2C(N)=O)c1", "active"],
  ["O=C(COc1ccc(Cl)cc1)N(Cc1ccco1)Cc1ccco1", "inactive"],
  ["CC(C)(C)NC(=O)NC(=O)COC(=O)Cc1ccc(Cl)cc1Cl", "inactive"],
  ["COc1ccc(-c2csc(Cc3nc(O)cs3)n2)cc1", "active"],
  ["CCCOC(=O)Nc1ccccc1C(N)=O", "inactive"],
  ["COc1cccc(OCC(=O)NNC(=O)c2cnccn2)c1", "inactive"],
  ["COC(=O)c1ccc(Cc2ccccc2)o1", "inactive"],
  ["CCCc1ccc(-c2csc(NC(=O)Cc3cccs3)n2)cc1", "inactive"],
  ["COc1ccc(C2=Nc3cc(C)ccc3OC2)cc1", "active"],
  ["NC(=O)Cc1nc2scc(-c3ccc(Cl)cc3)c2c(=O)[nH]1", "inactive"]
]}
